# Test system: PAE UFR90
# protocol.description: MIC, broth microdilution (CLSI), substance alone or ATB combined with compound at 4 or 8 μg/mL
# Assay type: cell-based, P. aeruginosa
# experimental.parameters: ATB MEM; PAE UFR90; Example @8 μg/ml
measure.name: MIC ATB combined with Example (µg/mL)

molecule: O=C1N2CC(n3cccn3)=CC(C2)N1OC(F)(F)C(=O)[O-].[Li+] (centres unmarked) [Example 13]
measure.name: MIC ATB combined with Example
reported: 2
--
molecule: O=C1N2CC(n3cccn3)=CC(C2)N1OS(=O)(=O)[O-].[Na+] (centres unmarked) [Example 11]
measure.name: MIC ATB combined with Example
reported: 1

I: O=C1N2CC(n3ccnn3)=CC(C2)N1OS(=O)(=O)[O-].[Na+] (centres unmarked) [Example 12]
II: O=C1N2CC(n3cncn3)=CC(C2)N1OS(=O)(=O)[O-].[Na+] (centres unmarked) [Example 14]
When their MIC ATB combined with Example values are compared, which is larger, I or II ? Choose, then provide that item's label. II
(II: 2 µg/mL, I: 1 µg/mL)

* * *

# Tested on: KPN BAA-1898
# protocol.description: MIC, broth microdilution (CLSI), substance alone or ATB combined with compound at 4 or 8 μg/mL
# Assay type: cell-based, K. pneumoniae
# experimental.parameters: ATB FOS; KPN BAA-1898; Example @8 μg/ml
Listed compounds paired with reported MIC ATB combined with Example

compound: O=C1N2CC(n3cncn3)=CC(C2)N1OS(=O)(=O)[O-].[Na+] (stereo not drawn)
measure.name: MIC ATB combined with Example
reported: <0.125 µg/mL

Turning to the following compound.
Fill in the blank: the reported MIC ATB combined with Example of O=C1N2CC(n3ccnn3)=CC(C2)N1OS(=O)(=O)[O-].[Na+] (stereo not drawn) is ____. <0.125 µg/mL

* * *

# System: SAU 29213
# protocol.description: MIC, broth microdilution (CLSI), substance alone or ATB combined with compound at 4 or 8 μg/mL
# Type: cell-based, S. aureus
# experimental.parameters: Staphylococcus aureus; substance alone; SAU 29213 (MSSA 29213); read-out: MIC
measure.name: MIC

Here are 2 compounds together with their reported answers.
compound: NC[C@H]1C=C(c2cnco2)[C@@H]2CN1C(=O)N2OS(=O)(=O)[O-].O=C(O)C(F)(F)F.[Na+] (relative stereo)
MIC: > 32 µg/mL

compound: NC[C@@H]1C(c2ncco2)=C[C@@H]2CN1C(=O)N2OS(=O)(=O)[O-].O=C(O)C(F)(F)F.[Na+]
MIC: > 32 µg/mL

Next item in the queue.
Fill in the blank: the reported MIC of `NCCON=C1C[C@@H](C(N)=O)N2C[C@@H]1N(OS(=O)(=O)[O-])C2=O.[Na+]` is ____. > 32 µg/mL

* * *

# System: KPN UFR42
# protocol.description: MIC, broth microdilution (CLSI), substance alone or ATB combined with compound at 4 or 8 μg/mL
# Format: cell-based, K. pneumoniae
# experimental.parameters: Klebsiella pneumoniae; substance alone; KPN UFR42; read-out: MIC
compounds and their reported MIC

Observe how each entry below is paired with its result.
compound: NCCCn1c2c(sc1=O)C1CN(C2)C(=O)N1OS(=O)(=O)O (stereo not drawn)
measure.name: MIC
reported: > 32 mg/L
--
compound: NC[C@H]1C=C(c2cnco2)[C@@H]2CN1C(=O)N2OS(=O)(=O)[O-].O=C(O)C(F)(F)F.[Na+] (relative stereo)
measure.name: MIC
reported: > 32 mg/L

Please look at the following compound next.
# lookup: MIC of CCN1CCN(C(=O)N[C@@H](C(=O)N[C@@H]2C(=O)N3[C@@H]2SC(C)(C)[C@@H]3C(=O)O)c2ccccc2)C(=O)C1=O [PIP, Piperacillin, reference compound] > 256 mg/L

* * *

# MIC values compiled below
# System: KPN BAA-1898
# protocol.description: MIC, broth microdilution (CLSI), substance alone or ATB combined with compound at 4 or 8 μg/mL
# Format: cell-based, K. pneumoniae
# experimental.parameters: Klebsiella pneumoniae, BAA1898; substance alone; KPN BAA-1898; read-out: MIC

// below: answered compounds
compound: CCN1CCN(C(=O)N[C@@H](C(=O)N[C@@H]2C(=O)N3[C@@H]2SC(C)(C)[C@@H]3C(=O)O)c2ccccc2)C(=O)C1=O [PIP, Piperacillin, reference compound]
measure.name: MIC
reported: > 1020 µg/mL

compound: NCCON=C1C[C@@H](C(N)=O)N2C[C@@H]1N(OS(=O)(=O)[O-])C2=O.[Na+] [Example 2]
measure.name: MIC
reported: > 32 µg/mL

compound: CC1(C)S[C@@H]2[C@H](NC(=O)[C@H](N)c3ccc(O)cc3)C(=O)N2[C@H]1C(=O)O [AMX, Amoxicillin, reference compound]
measure.name: MIC
reported: > 1020 µg/mL

Field request: MIC | item: CO/N=C(\C(=O)N[C@@H]1C(=O)N2C(C(=O)O)=C(COC(N)=O)CS[C@H]12)c1ccco1 [FUR, Cefuroxime, reference compound] > 512 µg/mL

Any idea what its MIC is? The compound is NC[C@H]1C=C(c2cnco2)[C@@H]2CN1C(=O)N2OS(=O)(=O)[O-].O=C(O)C(F)(F)F.[Na+] (relative stereo) [Example 1] > 32 µg/mL

Look up MIC: COCC1=C(C(=O)O)N2C(=O)[C@@H](NC(=O)/C(=N\OC)c3csc(N)n3)[C@H]2SC1 [POD, Cefpodoxime, reference compound] > 512 µg/mL

* * *

# System: KPN UFR42
# protocol.description: MIC, broth microdilution (CLSI), substance alone or ATB combined with compound at 4 or 8 μg/mL
# Format: cell-based, K. pneumoniae
# experimental.parameters: ATB ATM; KPN UFR42; Example @8 μg/ml
measure.name: MIC ATB combined with Example

Consider the following illustrative entries.
compound: O=C1N2CC(n3cncn3)=CC(C2)N1OS(=O)(=O)[O-].[Na+] (stereo not drawn)
target.under.test: KPN UFR42
reported: <0.031 mg/L
--
compound: O=C1N2CC(n3ccnn3)=CC(C2)N1OS(=O)(=O)[O-].[Na+] (stereo not drawn)
target.under.test: KPN UFR42
reported: <0.031 mg/L

Here is another compound to look at.
Query (compound): O=C1N2CC(n3cccn3)=CC(C2)N1OS(=O)(=O)[O-].[Na+] (stereo not drawn) ; field requested: MIC ATB combined with Example <0.031 mg/L

// data source = patent US20200024278A1
